Cited source for all entries: patent US12077503B2

// values below are reported pest or weed control at 250 g/ha
- Test system: velvetleaf (Abutilon theophrasti)
- assay: Test G Post-Emergence Protocol
- Type: in vivo
- condition-details: Abutilon theophrasti, post-emergence, 312 h, 250 g ai/ha, evaluated after 13 days, read-out: damage to plant, Velvetleaf (100=total damage to plant; 0=no damage to plant)
observed-property: pest or weed control at 250 g/ha

1. CN1C[C@H](c2ccc3c(c2)CCCC3)[C@@H](C(=O)Nc2cccc(F)c2F)C1=O (racemic) [Compound 1496] = 20%
2. COc1cc([C@H]2CN(C)C(=O)[C@@H]2C(=O)Nc2ccccc2F)ccc1Cl (racemic) [Compound 1421] = 0%
3. COc1cc([C@@H]2CN(C)C(=O)[C@H]2C(=O)Nc2cccc(F)c2F)ccn1 (racemic) [Compound 1480] = 20%
4. CN1C[C@@H](c2ccc(C(F)(F)F)cc2)[C@H](C(=O)Nc2nnc[nH]2)C1=O (racemic) [Compound 1562] = 0%
5. Cc1cc([C@@H]2CN(C)C(=O)[C@H]2C(=O)Nc2cccc(F)c2F)cc(Cl)n1 (racemic) [Compound 1481] = 10%
6. Cc1ccc([C@H]2CN(C)C(=O)[C@@H]2C(=O)Nc2ccccc2F)cc1Cl (racemic) [Compound 1420] = 10%
7. CCOC(=O)c1cccc([C@H]2CN(C)C(=O)[C@@H]2C(=O)Nc2ccccc2F)c1 (racemic) [Compound 1438] = 0%

====

- Test system: ryegrass, Italian (Italian ryegrass, Lolium multiflorum)
- assay: Test C preemergence
- Assay type: in vivo
- condition-details: 62 g ai/ha, scale 0 to 100, 0 no effect, 100 complete control
// values below are reported Plant response rating, Ryegrass, Italian
observed-property: Plant response rating, Ryegrass, Italian

1) CN1CC(c2cccc(C(F)(F)F)c2)C(C(=O)Nc2ccccc2S(C)(=O)=O)C1=O (stereo not drawn) [Compound 637] = 30
2) CN1CC(c2ccc(F)c(C(F)(F)F)c2)C(C(=O)Nc2cccc(F)c2F)C1=O (stereo not drawn) [Compound 613] = 25
3) O=C1NCC(c2cc(F)cc(Cl)c2)C1C(=O)Nc1cccc(F)c1F (stereo not drawn) [Compound 492] = 5
4) CN1CC(c2ccc(C(C)(F)F)cc2)C(C(=O)Nc2ccccc2F)C1=O (stereo not drawn) [Compound 691] = 35
5) O=C1NCC(c2cccc(OC(F)(F)C(F)F)c2)C1C(=O)Nc1ccccc1F (racemic) [Compound 695] = 60
6) CN1CC(c2cccc(C(F)(F)F)c2)C(C)(C(=O)Nc2ccccc2F)C1=O (stereo not drawn) [Compound 428] = 40

====

- System: Kochia (Kochia scoparia)
- assay: Test A postemergence
- Assay type: in vivo
- condition-details: Bassia scoparia, post-emergence, 240 h, 500 g ai/ha, postemergence; visual injury, 0 to 100 scale (0 no effect, 100 complete control), approx. 10 d; read-out: Plant response rating, Kochia
observed-property: pest or weed control at 500 g/ha (%)

1) Cc1ccc([C@H]2CNC(=O)[C@@H]2C(=O)Nc2cccc(F)c2C)cc1C [Compound 1035] = 20
2) CC(C)COc1cccc([C@H]2CN(C)C(=O)[C@@H]2C(=O)Nc2ccc(F)cc2F)c1 [Compound 1030] = 0
3) CSc1ccccc1NC(=O)[C@H]1C(=O)N(C)C[C@@H]1c1cc(C)c(Br)c(C)c1 [Compound 1025] = 50
4) CN1C[C@H](c2ccc(F)c(F)c2)[C@@H](C(=O)Nc2cccc(F)c2F)C1=O [Compound 639] = 70
5) Cc1cc([C@H]2CNC(=O)[C@@H]2C(=O)Nc2cccc(F)c2F)ccc1C(F)(F)F [Compound 1040] = 70
6) O=C1NC[C@H](c2ccc3c(c2)OCO3)[C@H]1C(=O)Nc1ccc(F)cc1F [Compound 1026] = 0
